Test: NCI Yeast Anticancer Drug Screen. Data for the cln2 rad14 strain (AID 165);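 note: 0% = growth equal to vehicle treated cultures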
Conditions: S. cerevisiae cln2 rad14 strain, at 50.0 µM, hits give high values
Compounds without any hit were thinned out: in the full panel of roughly 79,000, 15% have a hit.
Value Kind: growth inhibition (%)
Numbers only, in %.

Use the examples below as a reference point.
- CC1(C)Oc2ccc3c(=O)cc(-c4ccc(F)cc4)oc3c2C1C(=O)O (stereo not given): -9.1
- N#C/C=C1\C=CC(O)C(O)C1OC1OC(CO)C(O)C(O)C1O (stereo not given): 27.6
- CC1C2(C)OC(=N)C(C#N)(C(c3cccc([N+](=O)[O-])c3)O2)C1(C#N)C#N (stereo not given): 0.15
- CCOC(=O)C(=O)C(CCC(=O)c1ccc2ccccc2c1O)C(=O)OCC (stereo not given): 4.25
- COc1ccc(-c2coc3c4c(ccc3c2=O)OCO4)cc1OC: 7.2

Give me growth inhibition for each of these molecules, listed below.
1. C[C@@H]1C[C@@H]2OC(=O)[C@]3(C)[C@H]2[C@@H](OC3(C)O)[C@]2(C)C(=O)C=C[C@@H]12 (stereo not given in full)
2. CCCCCCCCCC(=O)CC(=O)c1c(O)cc(O)cc1O
3. COC(=O)C(=O)C(C(=O)C(=O)Nc1ccc(Cl)c(Cl)c1)c1nc2ccc(C(=O)c3ccccc3)cc2[nH]c1=O (stereo not given)
4. C/C=C1\NC(=O)[C@H]2CSSCCC=C[C@H](CC(=O)N[C@H](C(C)C)C(=O)N2)OC(=O)[C@H](C(C)C)NC1=O
5. N#CCCOc1ccccc1

1. -12.7
2. 22.4
3. 5.95
4. 51.6
5. 15.9
